meta.source: patent US20240197737A1

Target: ErbB2 (R896C) (Homo sapiens, UniProt P04626, R896C)
Sequence (P04626 23-1255 R896C): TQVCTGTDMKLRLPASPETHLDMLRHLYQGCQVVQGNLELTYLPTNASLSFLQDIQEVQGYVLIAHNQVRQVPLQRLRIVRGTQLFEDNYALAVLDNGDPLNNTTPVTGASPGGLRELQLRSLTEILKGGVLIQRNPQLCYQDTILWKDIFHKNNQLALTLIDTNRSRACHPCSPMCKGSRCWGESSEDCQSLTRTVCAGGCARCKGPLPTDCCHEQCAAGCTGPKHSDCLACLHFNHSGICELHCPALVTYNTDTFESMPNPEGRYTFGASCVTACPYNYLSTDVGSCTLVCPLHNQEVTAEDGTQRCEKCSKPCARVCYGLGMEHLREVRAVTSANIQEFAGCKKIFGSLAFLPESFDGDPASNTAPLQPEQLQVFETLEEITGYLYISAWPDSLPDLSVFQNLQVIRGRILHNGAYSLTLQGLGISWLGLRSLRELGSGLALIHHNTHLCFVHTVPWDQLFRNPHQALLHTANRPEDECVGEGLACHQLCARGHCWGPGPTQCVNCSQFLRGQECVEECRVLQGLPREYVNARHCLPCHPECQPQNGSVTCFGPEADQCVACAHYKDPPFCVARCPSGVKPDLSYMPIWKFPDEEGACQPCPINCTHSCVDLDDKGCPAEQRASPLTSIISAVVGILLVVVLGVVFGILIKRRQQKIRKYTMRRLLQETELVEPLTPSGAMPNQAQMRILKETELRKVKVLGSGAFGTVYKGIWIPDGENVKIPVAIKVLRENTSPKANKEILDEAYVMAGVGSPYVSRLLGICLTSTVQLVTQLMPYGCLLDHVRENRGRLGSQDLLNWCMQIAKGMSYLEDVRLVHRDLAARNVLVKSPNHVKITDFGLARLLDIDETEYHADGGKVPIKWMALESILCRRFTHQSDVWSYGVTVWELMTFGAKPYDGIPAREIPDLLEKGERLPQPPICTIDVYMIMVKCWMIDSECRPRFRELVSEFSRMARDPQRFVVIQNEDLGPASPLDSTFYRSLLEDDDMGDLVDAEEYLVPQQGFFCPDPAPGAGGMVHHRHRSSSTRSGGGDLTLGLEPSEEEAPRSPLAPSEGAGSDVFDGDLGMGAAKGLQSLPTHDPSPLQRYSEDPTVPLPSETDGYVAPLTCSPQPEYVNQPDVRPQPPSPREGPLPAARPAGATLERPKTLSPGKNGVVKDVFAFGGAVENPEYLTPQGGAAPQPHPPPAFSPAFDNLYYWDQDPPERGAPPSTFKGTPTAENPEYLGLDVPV
Assay: ErbB2 mutant inhibition assay (33P-ATP radiometric kinase assay, Reaction Biology)
Conditions: ATP 10 μM, 20 min preincubation, 2 h reaction; read-out: Compound IC50 ErbB2 (R896C)
Test Readout: pIC50
Give bare numbers, as −log10 of the molar value.

GET /values?item= CCOc1cc2ncc(C#N)c(Nc3ccc(Oc4cc5nncn5cn4)c(C)c3)c2cc1NC(=O)/C=C/[C@H]1CCCN1C &system= ErbB2 (R896C) (Homo sapiens, UniProt P04626, R896C) returns pIC50: 8.71

Can you give me pIC50 for all of these, one by one?
1. Cc1cc(Nc2ncnc3ccc(NC(=O)/C=C/[C@H]4CCCN4C)cc23)ccc1Oc1ccn2ccnc2c1
2. CN1CCC[C@@H]1/C=C/C(=O)Nc1ccc2ncnc(Nc3ccc(Oc4cc5nncn5cn4)c(Cl)c3)c2c1

Response:
[9.42, 9.73]

* * *

Biological target: ErbB2 (V777L) (Homo sapiens, UniProt P04626, V777L)
Sequence (P04626 23-1255 V777L): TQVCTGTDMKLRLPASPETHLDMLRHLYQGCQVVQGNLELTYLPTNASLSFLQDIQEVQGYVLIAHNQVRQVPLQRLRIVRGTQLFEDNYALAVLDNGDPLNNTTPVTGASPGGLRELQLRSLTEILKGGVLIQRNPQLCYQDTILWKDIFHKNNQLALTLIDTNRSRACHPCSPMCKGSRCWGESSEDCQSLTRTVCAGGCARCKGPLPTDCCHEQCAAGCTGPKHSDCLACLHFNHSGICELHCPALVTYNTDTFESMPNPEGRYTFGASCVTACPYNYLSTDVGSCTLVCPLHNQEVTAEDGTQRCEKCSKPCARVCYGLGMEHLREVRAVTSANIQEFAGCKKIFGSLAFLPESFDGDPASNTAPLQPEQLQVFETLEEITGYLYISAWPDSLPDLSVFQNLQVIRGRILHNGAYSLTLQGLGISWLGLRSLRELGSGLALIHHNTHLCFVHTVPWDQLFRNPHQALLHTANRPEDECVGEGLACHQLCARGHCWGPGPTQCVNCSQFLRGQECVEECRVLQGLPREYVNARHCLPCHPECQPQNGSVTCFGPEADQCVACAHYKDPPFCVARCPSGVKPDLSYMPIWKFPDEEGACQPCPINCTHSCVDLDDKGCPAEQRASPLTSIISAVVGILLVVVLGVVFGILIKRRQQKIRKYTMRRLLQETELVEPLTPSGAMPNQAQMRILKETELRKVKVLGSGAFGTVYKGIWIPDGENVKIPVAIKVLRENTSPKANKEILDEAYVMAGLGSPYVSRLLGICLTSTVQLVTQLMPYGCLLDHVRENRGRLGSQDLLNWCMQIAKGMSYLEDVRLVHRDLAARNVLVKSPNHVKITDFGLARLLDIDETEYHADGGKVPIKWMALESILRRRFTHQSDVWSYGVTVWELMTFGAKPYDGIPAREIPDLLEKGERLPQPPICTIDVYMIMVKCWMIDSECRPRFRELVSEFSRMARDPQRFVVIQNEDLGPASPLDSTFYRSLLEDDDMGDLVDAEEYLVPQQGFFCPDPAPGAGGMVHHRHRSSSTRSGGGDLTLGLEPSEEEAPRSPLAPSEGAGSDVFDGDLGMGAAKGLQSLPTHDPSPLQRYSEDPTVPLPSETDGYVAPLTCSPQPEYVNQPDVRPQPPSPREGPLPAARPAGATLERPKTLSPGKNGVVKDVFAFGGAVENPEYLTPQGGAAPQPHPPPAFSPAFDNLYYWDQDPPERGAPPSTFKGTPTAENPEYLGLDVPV
Assay: ErbB2 mutant inhibition assay (33P-ATP radiometric kinase assay, Reaction Biology)
Settings: ATP 10 μM, 20 min preincubation, 2 h reaction; read-out: Compound IC50 ErbB2 (V777L)
pIC50: −log10 of the molar value.
Returns one of Satisfied or Not satisfied; Satisfied when pIC50 is >= 9.

Request: Is pIC50 for Cc1cc(Nc2ncnc3ccc(NC(=O)/C=C/[C@H]4CCCN4)cc23)ccc1Oc1ccn2ncnc2c1 at or above 9?
Response: Satisfied

Request: Is pIC50 for COCCOc1cc2ncnc(Nc3ccc(Oc4cc5nncn5cn4)c(C)c3)c2cc1NC(=O)/C=C/[C@H]1CCCN1C at or above 9?
Response: Satisfied

Request: Is pIC50 for Cc1cc(Nc2ncnc3ccc(NC(=O)/C=C/[C@H]4CCCN4C)cc23)ccc1Oc1cc2nccn2cn1 at or above 9?
Response: Satisfied

Request: Is pIC50 for CN1CCC[C@@H]1/C=C/C(=O)Nc1ccc2ncnc(Nc3ccc(Oc4cc5nncn5cn4)c(Cl)c3)c2c1 at or above 9?
Response: Satisfied

Request: Is pIC50 for Cc1cc(Nc2ncnc3ccc(NC(=O)/C=C/[C@H]4CCCN4C)cc23)ccc1Oc1cnc2ccnn2c1 at or above 9?
Response: Satisfied

***
Request: Is pIC50 for Cc1cc(Nc2ncnc3ccc(NC(=O)/C(F)=C/[C@H]4CCCN4C)cc23)ccc1Oc1cc2nncn2cn1 at or above 9?
Response: Not satisfied

Request: Is pIC50 for CCOc1cc2ncnc(Nc3ccc(Oc4cc5nncn5cn4)c(C)c3)c2cc1NC(=O)/C=C/[C@H]1CCCN1C at or above 9?
Response: Satisfied

Request: Is pIC50 for Cc1cc(Nc2ncnc3ccc(NC(=O)/C=C/[C@H]4CCCN4C)cc23)ccc1Oc1ccc2nccn2n1 at or above 9?
Response: Not satisfied

Request: Is pIC50 for Cc1cc(Nc2ncnc3ccc(NC(=O)/C=C/[C@H]4CCCN4)cc23)ccc1Oc1cc2nncn2cn1 at or above 9?
Response: Satisfied

Request: Is pIC50 for CCOc1cc2ncc(C#N)c(Nc3ccc(OCc4ccccn4)c(Cl)c3)c2cc1NC(=O)/C=C/[C@H]1CCCN1C [Pyrotinib, reference compound] at or above 9?
Response: Not satisfied

Request: Is pIC50 for Cc1cc(Nc2ncnc3ccc(NC(=O)/C=C/[C@@H]4CCCN4C)cc23)ccc1Oc1cc2nncn2cn1 at or above 9?
Response: Satisfied

Request: Is pIC50 for Cc1cc(Nc2ncnc3ccc(NC(=O)/C=C/[C@H]4CCCN4C)cc23)ccc1Oc1ccn2ccnc2c1 at or above 9?
Response: Satisfied

Request: Is pIC50 for CCOc1cc2ncnc(Nc3ccc(Oc4ccn5ncnc5c4)c(C)c3)c2cc1NC(=O)/C(F)=C/[C@@H]1CCCN1C at or above 9?
Response: Satisfied

* * *

Target: ErbB2 (R896C) (Homo sapiens, UniProt P04626, R896C)
Test: ErbB2 mutant inhibition assay (33P-ATP radiometric kinase assay, Reaction Biology)
Details: ATP 10 μM, 20 min preincubation, 2 h reaction; read-out: Compound IC50 ErbB2 (R896C)
Test Readout: IC50 (nM)
Answers are plain numbers, in nM.

The compound listed as Cc1cc(Nc2ncnc3ccc(NC(=O)/C=C/[C@H]4CCCN4C)cc23)ccc1Oc1cnc2ccnn2c1 has a reported IC50 of 0.336

The compound listed as Cc1cc(Nc2ncnc3ccc(NC(=O)/C=C/[C@H]4CCCN4C)cc23)ccc1Oc1ccc2nccn2n1 has a reported IC50 of 3.7

The compound listed as CCOc1cc2ncnc(Nc3ccc(Oc4ccn5ncnc5c4)c(C)c3)c2cc1NC(=O)/C(F)=C/[C@@H]1CCCN1C has a reported IC50 of 0.978

Can you give me IC50 for all of these, one by one?
1. Cc1cc(Nc2ncnc3ccc(NC(=O)/C=C/[C@H]4CCCN4C)cc23)ccc1Oc1ccn2cnnc2c1
2. CCOc1cc2ncnc(Nc3ccc(Oc4cc5nncn5cn4)c(C)c3)c2cc1NC(=O)/C=C/[C@H]1CCCN1C

Response:
1. 0.191
2. 1.87

Can you give me IC50 for all of these, one by one?
1. CCOc1cc2ncnc(Nc3ccc(Oc4ccn5ncnc5c4)c(C)c3)c2cc1NC(=O)/C(F)=C/[C@H]1CCCN1C
2. Cc1cc(Nc2ncnc3ccc(NC(=O)/C=C/[C@@H]4CCCN4C)cc23)ccc1Oc1cc2nncn2cn1

Response:
1: 0.713; 2: 0.788

* * *

Give pIC50 for every item shown.
Molecular target: ErbB2 (R896C) (Homo sapiens, UniProt P04626, R896C)
Assay: ErbB2 mutant inhibition assay (33P-ATP radiometric kinase assay, Reaction Biology)
Details: ATP 10 μM, 20 min preincubation, 2 h reaction; read-out: Compound IC50 ErbB2 (R896C)
One number for each entry, as −log10 of the molar value.

Study these solved cases before continuing.
The compound listed as CCOc1cc2ncc(C#N)c(Nc3ccc(OCc4ccccn4)c(Cl)c3)c2cc1NC(=O)/C=C/[C@H]1CCCN1C [Pyrotinib, reference compound] has a reported pIC50 of 8.28

The compound listed as Cc1cc(Nc2ncnc3ccc(NC4=NC(C)(C)CO4)cc23)ccc1Oc1ccn2ncnc2c1 [Tucatinib, reference compound] has a reported pIC50 of 8.66

The compound listed as Cc1cc(Nc2ncnc3ccc(NC(=O)/C=C/C4COCCN4)cc23)ccc1Oc1cc2nncn2cn1 (stereo not shown) has a reported pIC50 of 9.01

***
The compound listed as Cc1cc(Nc2ncnc3ccc(NC(=O)/C=C/[C@H]4CCCN4)cc23)ccc1Oc1ccn2ncnc2c1 has a reported pIC50 of 9.00

* * *

Biological target: ErbB2 (D769H) (Homo sapiens, UniProt P04626, D769H)
Sequence (P04626 23-1255 D769H): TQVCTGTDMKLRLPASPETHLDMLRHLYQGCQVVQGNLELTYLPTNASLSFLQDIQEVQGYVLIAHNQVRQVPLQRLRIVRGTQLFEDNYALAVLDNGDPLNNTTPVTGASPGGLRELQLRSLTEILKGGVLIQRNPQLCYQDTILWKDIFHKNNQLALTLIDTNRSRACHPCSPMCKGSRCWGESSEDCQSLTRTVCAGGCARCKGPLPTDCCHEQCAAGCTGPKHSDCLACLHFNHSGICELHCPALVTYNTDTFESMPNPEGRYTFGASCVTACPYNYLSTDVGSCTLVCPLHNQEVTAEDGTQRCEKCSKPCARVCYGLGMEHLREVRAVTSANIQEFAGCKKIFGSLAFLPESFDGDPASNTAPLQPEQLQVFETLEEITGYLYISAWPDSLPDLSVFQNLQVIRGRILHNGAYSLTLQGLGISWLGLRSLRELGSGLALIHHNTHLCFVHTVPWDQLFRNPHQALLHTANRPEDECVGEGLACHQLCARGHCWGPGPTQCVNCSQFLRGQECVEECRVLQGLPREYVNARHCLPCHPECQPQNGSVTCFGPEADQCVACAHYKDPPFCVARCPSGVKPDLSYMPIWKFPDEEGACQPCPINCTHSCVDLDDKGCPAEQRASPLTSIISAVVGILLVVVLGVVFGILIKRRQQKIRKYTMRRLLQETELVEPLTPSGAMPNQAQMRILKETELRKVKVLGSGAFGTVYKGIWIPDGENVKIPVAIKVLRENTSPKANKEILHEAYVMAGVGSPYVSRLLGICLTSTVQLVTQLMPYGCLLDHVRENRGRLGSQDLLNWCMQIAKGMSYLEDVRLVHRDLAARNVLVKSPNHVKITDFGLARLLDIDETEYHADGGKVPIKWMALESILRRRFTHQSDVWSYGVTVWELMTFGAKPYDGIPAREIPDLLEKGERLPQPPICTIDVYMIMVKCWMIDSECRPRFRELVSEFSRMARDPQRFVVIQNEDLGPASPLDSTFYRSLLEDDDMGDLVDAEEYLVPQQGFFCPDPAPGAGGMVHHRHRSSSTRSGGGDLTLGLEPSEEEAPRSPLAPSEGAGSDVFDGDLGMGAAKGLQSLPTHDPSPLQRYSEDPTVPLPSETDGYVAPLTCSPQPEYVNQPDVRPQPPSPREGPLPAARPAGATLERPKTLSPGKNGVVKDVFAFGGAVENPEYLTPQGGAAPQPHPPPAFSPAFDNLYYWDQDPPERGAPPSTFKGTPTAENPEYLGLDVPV
Experiment: ErbB2 mutant inhibition assay (33P-ATP radiometric kinase assay, Reaction Biology)
Details: ATP 10 μM, 20 min preincubation, 2 h reaction; read-out: Compound IC50 ErbB2 (D769H)
Test Readout: IC50 (nM)
One number for each entry, in nM.

GET /values?item= Cc1cc(Nc2ncnc3ccc(NC4=NC(C)(C)CO4)cc23)ccc1Oc1ccn2ncnc2c1 [Tucatinib, reference compound] &system= ErbB2 (D769H) (Homo sapiens, UniProt P04626, D769H) returns IC50: 2.58

GET /values?item= CCOc1cc2ncc(C#N)c(Nc3ccc(OCc4ccccn4)c(Cl)c3)c2cc1NC(=O)/C=C/[C@H]1CCCN1C [Pyrotinib, reference compound] &system= ErbB2 (D769H) (Homo sapiens, UniProt P04626, D769H) returns IC50: 15.6

GET /values?item= CCOc1cc2ncnc(Nc3ccc(Oc4ccn5ncnc5c4)c(C)c3)c2cc1NC(=O)/C(F)=C/[C@@H]1CCCN1C &system= ErbB2 (D769H) (Homo sapiens, UniProt P04626, D769H) returns IC50: 0.998

GET /values?item= Cc1cc(Nc2ncnc3ccc(NC(=O)/C=C/[C@H]4CCCN4)cc23)ccc1Oc1cc2nncn2cn1 &system= ErbB2 (D769H) (Homo sapiens, UniProt P04626, D769H) returns IC50: 0.422

GET /values?item= Cc1cc(Nc2ncnc3ccc(NC(=O)/C=C/C4COCCN4)cc23)ccc1Oc1cc2nncn2cn1 (stereo not shown) &system= ErbB2 (D769H) (Homo sapiens, UniProt P04626, D769H) returns IC50: 0.72

GET /values?item= COCCOc1cc2ncnc(Nc3ccc(Oc4cc5nncn5cn4)c(C)c3)c2cc1NC(=O)/C=C/[C@H]1CCCN1C &system= ErbB2 (D769H) (Homo sapiens, UniProt P04626, D769H) returns IC50: 0.241

GET /values?item= CCOc1cc2ncnc(Nc3ccc(Oc4cc5nncn5cn4)c(C)c3)c2cc1NC(=O)/C=C/[C@H]1CCCN1C &system= ErbB2 (D769H) (Homo sapiens, UniProt P04626, D769H) returns IC50: 0.563

GET /values?item= Cc1cc(Nc2ncnc3ccc(NC(=O)/C(F)=C/[C@H]4CCCN4C)cc23)ccc1Oc1cc2nncn2cn1 &system= ErbB2 (D769H) (Homo sapiens, UniProt P04626, D769H) returns IC50: 1.69

Can you give me IC50 for all of these, one by one?
1. CCOc1cc2ncnc(Nc3ccc(Oc4ccn5ncnc5c4)c(C)c3)c2cc1NC(=O)/C(F)=C/[C@H]1CCCN1C
2. CCOc1cc2ncc(C#N)c(Nc3ccc(Oc4cc5nncn5cn4)c(C)c3)c2cc1NC(=O)/C=C/[C@H]1CCCN1C
3. Cc1cc(Nc2ncnc3ccc(NC(=O)/C=C/[C@H]4CCCN4C)cc23)ccc1Oc1ccc2nccn2n1
4. Cc1cc(Nc2ncnc3ccc(NC(=O)/C=C/[C@@H]4CCCN4C)cc23)ccc1Oc1cc2nncn2cn1
5. Cc1cc(Nc2ncnc3ccc(NC(=O)/C=C/[C@H]4CCCN4C)cc23)ccc1Oc1ccn2cnnc2c1
6. Cc1cc(Nc2ncnc3ccc(NC(=O)/C=C/[C@H]4CCCN4C)cc23)ccc1Oc1cc2nccn2cn1
7. Cc1cc(Nc2ncnc3ccc(NC(=O)/C=C/[C@H]4CCCN4)cc23)ccc1Oc1ccn2ncnc2c1

Response:
1. 0.716
2. 1.34
3. 9.11
4. 0.549
5. 0.253
6. 0.283
7. 0.325
